Before we begin, note that these pIC50 values for ALK tyrosine kinase receptor (Homo sapiens) originate from several publications.
Answers are plain numbers, as −log10 of the molar value.

COc1ccc(NC(=O)CNC(=O)c2cc(C(C)C)ccc2O)cc1Nc1ncc(Cl)c(Nc2ccccc2S(=O)(=O)C(C)C)n1: 9.15
CN1CCN(c2ccc(C(=O)Nc3n[nH]c4ccc(Cc5cc(F)cc(F)c5)cc34)c(Nc3ccccc3)c2)CC1: 6.16

The following compounds each have a reported value; give each one's pIC50.
1. COc1cccc(/C=N/Nc2ncc(Cl)c(Nc3ccccc3S(=O)(=O)C(C)C)n2)c1
2. COc1cc2c(cc1Nc1ncc(Cl)c(Nc3ccccc3S(=O)(=O)C(C)C)n1)C(C)(C)/C(=N/O)CC2
3. CC1(C)c2cc(N3CCOCC3)ccc2C(=O)c2c1[nH]c1cc(C#N)ccc21
4. Cc1cc2c(c(Cl)n1)-c1[nH]c3ccccc3c1CCN2CCc1ccccc1
5. CN(C)S(=O)(=O)c1ccc2c(c1)/C(=C/c1cc3c([nH]1)CCCC3)C(=O)N2
6. CN1CCN(c2ccc(NCc3cn(-c4cccc(NC(=O)c5cc(F)cc(F)c5)c4)nn3)cc2)CC1
7. CC(C)S(=O)(=O)c1ccccc1Nc1nc(N/N=C/c2ccc(F)cc2)ncc1Cl
8. CC(C)Oc1cc(N2CCC(N3CCN(C)CC3)CC2)ccc1Nc1ncc(Cl)c(Nc2ccccc2P(C)(C)=O)n1

[8.21, 6.37, 7.73, 4.67, 6.07, 7.26, 8.64, 9.17]

---

Before we begin, note that these IC50 values for ALK tyrosine kinase receptor (Homo sapiens, UniProt Q9UM73) originate from several publications.

Some solved cases for reference:
COc1cc(N2CCN(C(C)C)CC2)ccc1-c1n[nH]c2nc(-c3ccc(O)cc3)ccc12: 27 nM
C[C@H]1Nc2ccc3ncc(n3n2)C(=O)NCCOc2ccc(F)cc21: 13 nM
Cc1c(C(=O)N2CCOc3ccc(-c4ccc(N)nc4)cc3C2)ccc(S(C)(=O)=O)c1F: > 3500 nM
O=C1Nc2ccc(C(F)(F)F)cc2/C1=C/c1cc2c([nH]1)CCN(C(=O)N1CCOCC1)C2: > 10000 nM

# next compound below
// fetch IC50; item: "CCN(CC)CCCSC(=S)N1CCC(c2cc(OC(C)C)c(Nc3ncc(Cl)c(Nc4ccccc4S(=O)(=O)C(C)C)n3)cc2C)CC1" ; system: ALK tyrosine kinase receptor (Homo sapiens, UniProt Q9UM73)
> 100 nM

---

Before we begin, note that these log10 of IC50 values for ALK tyrosine kinase receptor (Homo sapiens) originate from several publications.
Recorded IC50 (log10, µM)

Some solved cases for reference:
CC(C)S(=O)(=O)c1ccccc1Nc1nc(Nc2nc3c(s2)CCN(C(=O)C2CCOCC2)CC3)ncc1Cl: -1.91
C[C@H]1Nc2ccc3ncc(n3n2)C(=O)NC2(CCC2)COc2ccc(F)cc21: -2.12

The following compounds each have a reported value; give each one's log10 of IC50.
1. Cc1cc(-c2cccc(N)c2)c(/C=C2\C(=O)Nc3ccccc32)[nH]1
2. COc1cc2c(cc1Nc1ncc(Cl)c(Nc3ccccc3S(=O)(=O)C(C)C)n1)CC/C(=N\NC(=N)N)C2(C)C
3. CC1(C)COc2ccc(F)cc2CNc2ccc3ncc(n3n2)C(=O)N1
4. CCN(CC)CCOc1ccc2c(c1)C(C)(C)c1oc3cc(Br)ccc3c1C2=O
5. Oc1ccc(CCN2CCc3c([nH]c4ccc(Br)cc34)-c3c2ccnc3Cl)cc1

1. -1.21
2. -1.74
3. -1.72
4. -0.11
5. 0.85

---

Before we begin, note that these pIC50 values for ALK tyrosine kinase receptor (Homo sapiens, UniProt Q9UM73) originate from several publications.
Numbers only, as −log10 of the molar value.

Some solved cases for reference:
CN1CCN(c2ccc(C(=O)Nc3n[nH]c4ccc(Cc5cc(F)cc(F)c5)cc34)c(NC3CCCCC3)c2)CC1: 6.25
CN(C)c1nnc(C2=NNC(=O)/C2=C\c2cn(C)c3cccc(OCc4ccccc4)c23)s1: 5.34
Oc1ccc(-c2ccc3c(-c4ccc(CN5CCOCC5)o4)n[nH]c3n2)cc1: 7.03
CC(C)Oc1ccc(NC(=O)CNC(=O)c2cc(C(C)C)c(O)cc2O)cc1Nc1nccc(Nc2ccccc2S(=O)(=O)C(C)C)n1: 8.38
COc1ccc2c(c1)/C(=C/c1cc3c([nH]1)CCN(C(=O)c1cnoc1C)C3)C(=O)N2: 5.85

The following compounds each have a reported value; give each one's pIC50.
1. CN1CCC(Nc2ccc3c(c2)/C(=C/c2cc4c([nH]2)CCN(C(=O)N2CCOCC2)C4)C(=O)N3)CC1
2. COc1cc2c(cc1Nc1ncc(Cl)c(Nc3ccccc3S(=O)(=O)C(C)C)n1)C(C)(C)/C(=N/NC(=N)N)CC2
3. C=CC(=O)Nc1cc(Nc2ncc(Cl)c(Nc3ccccc3S(=O)(=O)NC3CC3)n2)c(OC)cc1N(C)CCN(C)C
4. COc1cc(-c2c[nH]c(=O)c(C(=O)Nc3ccc(CN4CCN(C)CC4)cc3)c2)cc(OC)c1OC

7.12
7.80
8.48
5.12

The following compounds each have a reported value; give each one's pIC50.
1. Cc1nc(COc2cccc3c2c(/C=C2\C(=O)NN=C2c2snnc2C)cn3C)cs1
2. Cc1cc2c(cc1N1CCN(C3COC3)CC1)C(C)(C)c1[nH]c3cc(C#N)ccc3c1C2=O
3. COc1cc(N2CCC(N3CCN(C)CC3)CC2)ccc1Nc1ncc(Cl)c(Nc2ccccc2C(C)=O)n1
4. COc1cc(N2CCC(N3CCN(C)CC3)CC2)ccc1Nc1ncc(C)c(Nc2ccccc2P(C)(C)=O)n1
5. COc1cc(N2CCC(N3CCN(C)CC3)CC2)ccc1Nc1ncc(Cl)c(Nc2ccccc2C(C)O)n1 (stereo unspecified)

1: 5.52; 2: 7.97; 3: 8.80; 4: 9.38; 5: 9.00

The following compounds each have a reported value; give each one's pIC50.
1. COc1cc(N2CCC(N3CCN(C)CC3)CC2)ccc1Nc1ncc(Cl)c(Nc2ccccc2C#N)n1
2. CCN(CC)CC(=O)Nc1n[nH]c2cc(Nc3ncc(Cl)c(Nc4ccccc4S(=O)(=O)C(C)C)n3)ccc12

[8.73, 8.48]

The following compounds each have a reported value; give each one's pIC50.
1. O=C(Nc1n[nH]c2ccc(Cc3cc(F)cc(F)c3)cc12)c1ccc(CN2CCCCC2)cc1NC1CCOCC1
2. CC(C)N1CCN(c2ccc(-c3n[nH]c4nc(-c5ccc(O)c(F)c5)ccc34)cc2)CC1
3. Cc1ccc(F)cc1Cc1ccc2[nH]nc(NC(=O)c3ccc(N4CCN(C)CC4)cc3NC3CCOCC3)c2c1
4. COc1cc(-n2cccc2C(=O)NCCO)ccc1Nc1ncc(Cl)c(Nc2ccccc2NS(C)(=O)=O)n1

1: 7.74; 2: 8.80; 3: 6.74; 4: 8.72

Look up and state reported pIC50 for "CNC(=O)CN1CCN(c2ccc(Nc3ncc(Cl)c(Nc4ccccc4P(C)(C)=O)n3)c(OC)c2)CC1"
8.51

---

Before we begin, note that these IC50 values for ALK tyrosine kinase receptor (Homo sapiens, UniProt Q9UM73) originate from several publications.
Answers are plain numbers, in nM.

Some solved cases for reference:
COCC(COC)Nc1cc(N2CCN(C)CC2)ccc1C(=O)Nc1n[nH]c2ccc(Cc3cc(F)cc(F)c3)cc12: 99
C[C@@H]1Nc2ccc3ncc(n3n2)C(=O)NC2(CC2)COc2ccc(F)cc21: 482
CCOc1cc(C2CCN(C)CC2)ccc1Nc1ncc2c(n1)N(Cc1cc(C)cs1)[C@H](CC)C(=O)N2C: 17

The following compounds each have a reported value; give each one's IC50.
1. COc1ccccc1Nc1ncc(Cl)c(Nc2ccccc2S(=O)(=O)C(C)C)n1
2. COc1ccc(NC(=O)CNC(=O)c2cc(C(C)C)c(O)cc2O)cc1Nc1ncc(Cl)c(Nc2ccccc2S(=O)(=O)C(C)C)n1
3. CN1CCN(CCc2ccc(NC(=O)c3cc(-c4ccc5c(c4)OCO5)cnc3O)cc2)CC1

1: 2.1; 2: 1.7; 3: 400

---

Before we begin, note that these IC50 values for ALK tyrosine kinase receptor (Homo sapiens) originate from several publications.
// boundary case: IC50 equal to 4 nM maps to not met; strictly smaller maps to met

COc1cc(OC2CCN(C)C2)ccc1Nc1ncc(Cl)c(Nc2ccccc2P(C)(C)=O)n1 (centres undefined): met
COc1cc(N2CCC(N3CCN(C)CC3)CC2)ccc1Nc1ncc(F)c(Nc2ccccc2P(C)(C)=O)n1: met
Cc1cc(Nc2ncc(Cl)c(Nc3ccccc3S(=O)(=O)C(C)C)n2)c(OC(C)C)cc1C1CCN(C(=S)SCCN2CCCCC2)CC1: not met

Quick check: does "CC1(C)c2cc(OCCN3CCS(=O)(=O)CC3)ccc2C(=O)c2c1[nH]c1cc(C#N)ccc21" have IC50 under 4 nM?
met

Quick check: does "Cc1c(O)c(O)c(O)c2c1COC2=O" have IC50 under 4 nM?
not met

Quick check: does Cc1cc(Nc2ncc(Cl)c(Nc3ccccc3S(=O)(=O)C(C)C)n2)c(OC(C)C)cc1C1CCN(C(=O)SCC(=S)N2CCNC(C)C2)CC1 (centres undefined) have IC50 under 4 nM?
not met

Quick check: does "Cn1cc(/C=C2\C(=O)NN=C2c2cccnc2)c2c(OCc3ccccc3)cccc21" have IC50 under 4 nM?
not met

Quick check: does "COc1cc2c(cc1Nc1ncc(Cl)c(Nc3ccccc3S(=O)(=O)C(C)C)n1)C(C)(C)/C(=N/N1CCOCC1)CC2" have IC50 under 4 nM?
not met

Quick check: does "COc1ccc(NC(=O)CNC(=O)c2cc(C(C)C)c(O)cc2O)cc1Nc1ncc(Cl)c(Nc2ccccc2P(C)(C)=O)n1" have IC50 under 4 nM?
met
